system: CP203; experiment: qHTS profiling for inhibitors of Plasmodium falciparum proliferation (AID 504749); note: nearly all actives have a fitted effect of over 60% in size; conditions: P. falciparum in erythrocytes, SYBR Green DNA, 72 h; series mostly up to 28.7 µM
Results filed as inconclusive are left out. Activity calls are given as the source filed them. Calls come from the whole dose curve; as a rule, active = well fitted inhibition curve with a large enough effect; inconclusive = small, poorly fitted or top-dose-only effect; inactive = flat fitted curve, though single readings scatter.
Could you please pick one outcome from this set? active, inactive

Qu. // return assay outcome for C[C@]12C=CC(=O)N[C@@H]1CC[C@@H]1C2CC[C@]2(C)C(C(=O)Nc3cc(C(F)(F)F)ccc3C(F)(F)F)CC[C@@H]12 (stereo partly drawn)
Ans. inactive

Qu. // return assay outcome for O=C1C(I)=CC(=C(c2cc(I)c(O)c(I)c2)c2ccccc2C(=O)O)C=C1I
Ans. inactive

Qu. // return assay outcome for OCCN1CC(O)C(O)C(O)C1CO (stereo not drawn)
Ans. inactive

Qu. // return assay outcome for CO/N=C(/C(=O)N[C@@H]1C(=O)N2C(C(=O)O)=C(CSc3cnns3)CS[C@H]12)c1csc(N)n1
Ans. inactive

Qu. // return assay outcome for C=C1NC(=O)c2cc(CN(C)c3ccc(C(=O)N[C@@H](CCC(=O)O)C(=O)O)s3)ccc2N1
Ans. inactive

Qu. // return assay outcome for O=C1Oc2ccccc2C(=O)C1C(CC(O)c1ccc(-c2ccc(Br)cc2)cc1)c1ccccc1 (stereo not drawn)
Ans. inactive

Qu. // return assay outcome for CCCCN1CC(O)C(O)C(O)C1CO (stereo not drawn)
Ans. inactive

Qu. // return assay outcome for COc1ccc(C(=O)/C(Br)=C/C(=O)O)cc1
Ans. inactive

Qu. // return assay outcome for C[N+]12CCCC[C@@H]1CCC(=C(c1cccs1)c1cccs1)C2 (stereo partly drawn)
Ans. active

Qu. // return assay outcome for CC(=O)NC1[C@H](O)C[C@@](O)(C(=O)O)O[C@H]1[C@H](O)[C@H](O)CO (stereo partly drawn)
Ans. inactive

Qu. // return assay outcome for CC(C)C[C@@H](NC(=O)[C@@H](Cc1ccccc1)NC(=O)c1cnccn1)B(O)O
Ans. active

Qu. // return assay outcome for CC(CN1CC(=O)NC(=O)C1)N1CC(=O)NC(=O)C1 (stereo not drawn)
Ans. inactive

Qu. // return assay outcome for O=[N+]([O-])O[C@H]1CO[C@H]2[C@@H]1OC[C@H]2O
Ans. inactive
